# assayedSystem: ERα (Homo sapiens, UniProt P03372)
# Sequence (P03372 whole entry): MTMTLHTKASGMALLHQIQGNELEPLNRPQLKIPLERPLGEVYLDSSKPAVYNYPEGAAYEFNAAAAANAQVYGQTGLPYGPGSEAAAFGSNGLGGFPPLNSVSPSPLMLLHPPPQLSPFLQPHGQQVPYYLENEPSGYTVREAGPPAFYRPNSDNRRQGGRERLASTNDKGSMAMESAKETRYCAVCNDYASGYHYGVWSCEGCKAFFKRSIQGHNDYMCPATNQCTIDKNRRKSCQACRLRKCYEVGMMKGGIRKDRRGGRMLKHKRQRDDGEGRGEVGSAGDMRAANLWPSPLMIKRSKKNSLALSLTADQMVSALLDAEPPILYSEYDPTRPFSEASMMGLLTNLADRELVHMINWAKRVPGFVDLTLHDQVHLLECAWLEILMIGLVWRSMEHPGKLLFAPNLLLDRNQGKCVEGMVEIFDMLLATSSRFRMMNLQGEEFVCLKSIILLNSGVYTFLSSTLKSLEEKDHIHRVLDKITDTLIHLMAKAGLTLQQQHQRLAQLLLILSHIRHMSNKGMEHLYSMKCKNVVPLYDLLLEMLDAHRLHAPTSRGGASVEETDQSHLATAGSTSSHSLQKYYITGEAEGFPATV
# method: ERE luciferase reporter gene assay in T47D-KBluc cells (target engagement)
# Type: cell-based
# Design: T47D human breast cancer cells stably transfected with estrogen responsive element/promoter/luciferase reporter gene; host or cells: T47D-KBluc cells
# experimentalConditions: 10% FBS, 24 hours, Table 3 cereblon centric PROTACs, read-out: ER-α Luciferase IC50
pIC50: −log10 of the molar value.
valueType: pIC50

1) O=C1CCC(N2C(=O)c3ccc(N4CC(N5CCC(Oc6ccc(Oc7c(-c8ccc(Br)cc8)sc8cc(O)ccc78)cc6)CC5)C4)cc3C2=O)C(=O)N1 (stereo not drawn): 7.95
2) O=C1CCC(N2C(=O)c3ccc(N4CCN(CC5CCN(CCOc6ccc(Oc7c(-c8ccc(C(F)(F)F)cc8)sc8cc(O)ccc78)cc6)CC5)CC4)cc3C2=O)C(=O)N1 (stereo not drawn): 7.83
3) COc1ccc2c(Oc3ccc(OCCN4CCN(CCCNc5ccc6c(c5)CN(C5CCC(=O)NC5=O)C6=O)CC4)cc3)c(-c3ccc(O)cc3)sc2c1 (stereo not drawn): 8.66
4) O=C1CCC(N2C(=O)c3ccc(N4CC(CN5CCCN(CCOc6ccc(Oc7c(-c8ccc(Br)cc8)sc8cc(O)ccc78)cc6)CC5)C4)cc3C2=O)C(=O)N1 (stereo not drawn): 8.74
5) O=C1CCC(N2Cc3cc(N4CCN(CCC5CCN(c6ccc(Oc7c(-c8ccc(F)cc8)sc8cc(O)ccc78)cc6)CC5)CC4)ccc3C2=O)C(=O)N1 (stereo not drawn): 9.00
6) O=C1CCC(N2Cc3cc(N4CCN(C5CCN(CCOc6ccc(Oc7c(-c8ccc(Br)cc8)sc8cc(O)ccc78)cc6)CC5)CC4)ccc3C2=O)C(=O)N1 (stereo not drawn): 8.41
7) O=C1CCC(N2Cc3nc(N4CCN(CC5CCN(c6ccc(Oc7c(-c8ccc(Br)cc8)sc8cc(O)ccc78)cc6F)CC5)CC4)ccc3C2=O)C(=O)N1 (stereo not drawn): 7.87
8) O=C1CCC(N2Cc3nc(N4CCN(CC5CCN(c6ccc(Oc7c(-c8ccc(O)cc8)sc8cc(O)ccc78)cc6)CC5)CC4)ccc3C2=O)C(=O)N1 (stereo not drawn): 9.74
9) O=C1CCC(N2Cc3c(cc(F)c(N4CCN(C5CC6(C5)CN(CCOc5ccc(Oc7c(-c8ccc(C(F)(F)F)cc8)sc8cc(O)ccc78)cc5)C6)CC4)c3F)C2=O)C(=O)N1 (stereo not drawn): 7.88
10) O=C1CCC(N2Cc3cc(CCCCN4CCCN(CCOc5ccc(Oc6c(-c7ccc(Br)cc7)sc7cc(O)ccc67)cc5)CC4)ccc3C2=O)C(=O)N1 (stereo not drawn): 9.09
11) O=C1CCC(N2Cc3cc(N4CCN(CC5CCN(CCOc6ccc(Oc7c(-c8ccc(C(F)(F)F)cc8)sc8cc(O)ccc78)cc6)CC5)CC4)c(F)cc3C2=O)C(=O)N1 (stereo not drawn): 7.79
12) O=C1CCC(N2C(=O)c3ccc(N4CC(CN5CCN(CCOc6ccc(Oc7c(-c8ccc(Br)cc8)sc8cc(O)ccc78)cc6)CC5)C4)cc3C2=O)C(=O)N1 (stereo not drawn): 8.52
13) O=C1CCC(N2Cc3cc(N4CCN(CCCOc5ccc(Oc6c(-c7ccc(Br)cc7)sc7cc(O)ccc67)cc5)CC4)cc(F)c3C2=O)C(=O)N1 (stereo not drawn): 8.05
14) O=C1CCC(N2Cc3cc(N4CCN(C5CCN(CCOc6ccc(Oc7c(-c8ccc(C(F)(F)F)cc8)sc8cc(O)ccc78)cc6)CC5)CC4)ccc3C2=O)C(=O)N1 (stereo not drawn): 8.54
15) COc1ccc(-c2sc3cc(O)ccc3c2Oc2ccc(N3CCC(CN4CCN(c5ccc6c(c5)CN(C5CCC(=O)NC5=O)C6=O)CC4)CC3)cc2)cc1 (stereo not drawn): 9.19
16) O=C1CCC(N2Cc3cc(C4CCN(C5CCN(CCOc6ccc(Oc7c(-c8ccc(Br)cc8)sc8cc(O)ccc78)cc6)CC5)CC4)ccc3C2=O)C(=O)N1 (stereo not drawn): 8.07
17) O=C1CCC(N2Cc3c(ccc(N4CCN(C5CCN(CCOc6ccc(Oc7c(-c8ccc(C(F)(F)F)cc8)sc8cc(O)ccc78)cc6)CC5)CC4)c3F)C2=O)C(=O)N1 (stereo not drawn): 8.01
18) O=C1CCC(N2Cc3cc(NCCCN4CCN(CCOc5ccc(Oc6c(-c7ccc(F)cc7)sc7cc(O)ccc67)cc5)CC4)ccc3C2=O)C(=O)N1 (stereo not drawn): 9.27
